- experimental-protocol: Crystalline and amorphous solubility of the substance
- Format: physicochemical
- measurement-parameters: water; amorphous form; read-out: amorphous solubility
- Method: The solubility of the substance in water may be measured using a conventional technique. For example, a saturated solution of the substance is prepared by adding an excess amount of the substance to water at 25° C. and allowing the solution to equilibrate for 48 hours. Excess solids are removed by centrifugation or filtration and the concentration of the substance in water is determined by a suitable analytical technique such as HPLC. […]
readout-kind: solubility

Entry under review: CCOC(=O)C1=C(C)NC(C)=C(C(=O)OC)C1c1cccc(Cl)c1Cl (stereo not shown) [felodipine] . Reported solubility?
~24 µM
